Quick reference: Enzyme activity endpoint: IgG of the listed items.
# studySystem: pooled human IgG (human IgG1,2,3 and 4)
Give the value in ng/µL but do not write ng/µL after it.

As a guide, the following entries are already answered.
{"protein": "PRT-616 (protein) MQITTVWTKGVTPLTPEQFRYNNEDVIHAPYLPHQGWYDITKAFDGKDNLLCGAATAGNMLHWWFDQNKTEIEAYLSKYPEKQKIIFNNQELFDLRAAINTKDSQTNSQLFNYFRDKAFPNLSARQLGVMPDLVLDMFINGYYLNVFKTQSTDVNRPYQDRDKRGGIFDAVFNRGDQTTLLTARHDLKNKGLNDISTIIKQELSSGRALALSHTYANVSISHVINLWGADFNAEGNLEAIYVTDSDANASIGMKKYYVGINAHGHVAISAKKIEGENIGAQVLGLFTLSSGKDIWQKLSLEHHHHHH", "unitSpec": "ng/µL", "reading": 0}
{"protein": "PRT-664 (protein) MQITSVWTKGVTPLTPEQFRYNNEDVIHAPYLPHQGWYDITKAFDGKDNLLCGAATAGNMLHWWFDQNKTEIEAYLSKHPEKQKIIFNNQELFDLRAAINTKDSQTNSALFNYFRDKAFPNLSARQLGVMPDLVLDMFINGYYLNVFKTQSTDVNRPYQDKDKRGGIFDAVFTRGDQTTLLTARHDLKNKGLNDISTLIKQELTEGKALALSHTYANVSISHVINLWGADFNAEGNLEAIYVTDSDSDASIGMKKYYVGINASGHVAISAKKIEGENIGAQVLGLFTLSSGKDIWQKLSLEHHHHHH", "unitSpec": "ng/µL", "reading": 0}
{"protein": "PRT-531 (protein) MANQEIRYSEDTPSHITSVWTKGVTPPTQFIQNEDVLHAPYIANQGWYDITKTFNGKDDLLCGAATAGNMLHWWFDQNKEQIEAYLKKYPEKQKINFNGEQMFDVKEAIDTKDSQTDSALFNYFRDKAFPNLSTKHLGVMPDHVIDMFINGYRLNLGNHGPTPVKNQTKDLRGGIFDAVFTRGDQSKLLTARHDFKEKTLKEISQLIKQELTEGKALALSHTYANVRINHVINLWGADFNAEGNLEAIYVTDSDSNASIGMKKYYVGVNAAGKVAISAKEIEGDNIGAQVLGLFTLSSGQDIWQQTNLEHHHHHH", "unitSpec": "ng/µL", "reading": 0}

Here's the next entry for you.
Memo: PRT-679 (protein) MQITSVWTKGVTPLTPEQFRYNNEDVIHAPYLAHQGWYDITKTFDGKDNLLCGAATAGNMLHWWFDQNKTEIEAYLSKHPEKQKIIFNNQELFDLKEAINTKDSQTNSQLFNYFRDKAFPNLSARQLGVMPDLVLDMFINGYYLNVFKTQSTDVNRPYQDKDKRGGIFDAVFTRGDQTTLLTARHDLKNKGLNEISTIIKQELTEGKALALSHTYANVSISHVINLWGADFNAEGNLEAIYVTDSDANASIGMKKYFVGINAHGHVAISAKKIEGENIGAQVLGLFTLSSGKDIWQKLSLEHHHHHH , reported Enzyme activity endpoint: IgG: 34
